# Tested system: T1, RBFOX1 RRM RbFoxmut (Fox-RRM*) (Homo sapiens, UniProt Q9NWB1 109-208, R118D;E147R;N151S;E152T)
# T1 sequence: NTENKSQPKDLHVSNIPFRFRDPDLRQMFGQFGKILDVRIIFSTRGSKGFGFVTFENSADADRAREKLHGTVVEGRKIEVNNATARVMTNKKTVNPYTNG
# Assay explanation: EMSA; HiTS-Eq, 1 nM pool, 10 min; buffer printed only for the single-RNA assays: 10 mM Tris pH 7.5, 150 mM NaCl, 3.4 mM EDTA, 0.001% NP-40, 30 C
# Experimental parameters: tags: His6 N-terminal (pET28a); label: 5' 32P
In all, about 16,000 sequences were measured (“ka relative to ugcaugu”: median about 0.096, highest 2% from about 0.35 on). The sample holds the highest values, similar sequences and a random draw of the others, so the mix is not that of the screen.
Recorded endpoint: binding signal

UCUGUUU (DNA:RNA) RNA: GGGAGACCGGAAUUCAGAUUGUCCUCUGUUUUUAAAUCCCGUCGUAGCCACCA DNA 1: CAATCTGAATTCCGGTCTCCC DNA 2: TGGTGGCTACGACGGGATT
0.0825 KA relative to UGCAUGU

Then there is this binder:
GET /values?readout=binding signal&item= GUGCUUG (DNA:RNA) RNA: GGGAGACCGGAAUUCAGAUUGUCCGUGCUUGUUAAAUCCCGUCGUAGCCACCA DNA 1: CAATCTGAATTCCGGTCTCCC DNA 2: TGGTGGCTACGACGGGATT
0.511 KA relative to UGCAUGU

All figures here come from paper PMC9911399.
